Test system: COS-1 cells
Assay: MTT assay (cell viability)
Format: cell-based
Settings: 1 µM; cell viability
Measured MTT.1µM values are reported for all entries that follow.

>  <Compound>
CCN(CC)c1ccc(CNc2c(-c3ccccc3)noc2C)cc1

>  <MTT.1µM>
111.17

$$$$
>  <Compound>
CCN(c1ccc(NC(=O)c2c(C)noc2-c2ccccc2)cc1)C(C)C

>  <MTT.1µM>
99.16

$$$$
>  <Compound>
CCN(c1ccc(NC(=O)c2c(-c3ccccc3)noc2C)cc1)C(C)C

>  <MTT.1µM>
100.09

$$$$
>  <Compound>
Cc1onc(-c2ccccc2)c1C(=O)Nc1ccc(OCc2ccccc2)cc1

>  <MTT.1µM>
105.45

$$$$
>  <Compound>
CCCn1nnc(-c2ccccc2)c1C(=O)Nc1ccc(N(CC)CC)cc1

>  <MTT.1µM>
101.13

$$$$
>  <Compound>
CCN(CC)c1ccc(NC(=O)c2snnc2-c2ccccc2)cc1 [Compound 47n]

>  <MTT.1µM>
104.04

$$$$
>  <Compound>
CC(=O)N(Cc1ccc(N(C)C)cc1)c1c(-c2ccccc2)noc1C

>  <MTT.1µM>
98.18

$$$$
>  <Compound>
CCN(CC)c1ccc(/C=N/c2c(-c3ccccc3)noc2C)c(O)c1

>  <MTT.1µM>
105.22

$$$$
>  <Compound>
CCN(CC)c1ccc(NCc2c[nH]nc2-c2cc(F)cc(F)c2)cc1

>  <MTT.1µM>
101.61

$$$$
>  <Compound>
CC[N+](O)(CC)c1ccc(NC(=O)c2c(-c3ccccc3)noc2C)cc1

>  <MTT.1µM>
104.81

$$$$
>  <Compound>
COc1ccc(-c2cc(NC(=O)c3ccc(C(C)(C)C)cc3)n[nH]2)cc1

>  <MTT.1µM>
110.93

$$$$
>  <Compound>
Cc1onc(-c2ccccc2)c1C(=O)Nc1ccc(C#C[Si](C)(C)C)cc1

>  <MTT.1µM>
104.97

$$$$
>  <Compound>
CCN(CC)c1ccc(NC(=O)c2c(C)noc2-c2cc(C)on2)cc1

>  <MTT.1µM>
105.34

$$$$
>  <Compound>
CCN(CC)c1ccc(NC(=O)c2cnc3ncccn23)cc1 [Compound 47aa]

>  <MTT.1µM>
101.8

$$$$
>  <Compound>
CCN(CC)c1ccc(NC(=O)c2c[nH]nc2-c2ccccc2)cc1

>  <MTT.1µM>
100.37

$$$$
>  <Compound>
CCC(=O)N(Cc1ccc(N(CC)CC)cc1)c1c(-c2ccccc2)noc1C

>  <MTT.1µM>
99.35

$$$$
>  <Compound>
CCN(CC)c1ccc(NC(=O)c2cnoc2-c2ccccc2)cc1 [Compound 47d]

>  <MTT.1µM>
107.01

$$$$
>  <Compound>
Cc1onc(-c2ccccc2)c1C(=O)Nc1ccc2oc(-c3ccccc3)cc(=O)c2c1

>  <MTT.1µM>
109.72

$$$$
>  <Compound>
CCN(CC)c1ccc(NC(=O)c2c(-c3cccc([N+](=O)[O-])c3)noc2C)cc1 [Compound 39g]

>  <MTT.1µM>
105.86

$$$$
